# Target: UniProt P50406
# Procedure Details: functional assay for serotonin 5-HT6 receptor inhibition (serotonin-induced intracellular cAMP, LANCE cAMP kit, HEK 293 cells)
# Assay type: cell-based
# Assay Setup: HEK 293 cells with expressed 5-HT6 receptor; reduction of serotonin-induced intracellular cAMP
Structures can show the parent of a compound that is named as a salt.
Measured Attribute: log10 IC50 (log10 of the value in nM)

| Molecule | Numeric Result |
| --- | --- |
| CNc1nn2c(CN)cc(C)nc2c1S(=O)(=O)c1ccc(F)cc1 [1.2.24(2).HCl] | 1.34 |
| CNc1nn2c(C)c(CN)c(C)nc2c1S(=O)(=O)c1ccccc1 [1.2.22(2).HCl] | 0.95 |
| CNc1nn2c(C)c(CN(C)C)c(C)nc2c1S(=O)(=O)c1cccc(Cl)c1 [1.2.22(11).HCl] | 1.34 |
| CSc1nn2c(C)ccnc2c1S(=O)(=O)c1ccc(F)c(Cl)c1 [1.1.3(5)] | 2.19 |
| CNc1nn2c(N3CCOCC3)cc(C)nc2c1S(=O)(=O)c1ccccc1 [1.1.12(5)] | 2.29 |
| CNc1nn2c(-c3cccnc3)cc(C)nc2c1S(=O)(=O)c1ccccc1 [1.2.9(7)] | 2.53 |
| CNc1nn2cccnc2c1S(=O)(=O)c1ccccc1 [1.2.1(1)] | 1.88 |
| CNc1nn2c(N(C)CCN(C)C)cc(C)nc2c1S(=O)(=O)c1ccccc1 [1.2.12(12)] | 3.27 |
| CSc1nn2cccnc2c1S(=O)(=O)c1cccc(C)c1 [1.1.1(6)] | 3.34 |
| CNc1nn2c(C)cc(COC)nc2c1S(=O)(=O)c1ccccc1 [1.2.5(1)] | 0.60 |
| CNc1nn2c(C)c(CN)c(C)nc2c1S(=O)(=O)c1cccc(F)c1 [1.2.22(6).HCl] | 1.40 |
| CSc1nn2c(C)c(Oc3cccnc3)c(C)nc2c1S(=O)(=O)c1ccccc1 [1.1(7)] | 2.71 |
| CNc1nn2c(C)cc(CN)nc2c1S(=O)(=O)c1ccc(F)cc1 [1.2.23(2).HCl] | 1.57 |
| CNc1nn2c(C)c(CCC(=O)N3CCN(C)CC3)c(C)nc2c1S(=O)(=O)c1ccccc1 [1.2.19(4).HCl] | 3.78 |
| CNc1nn2c(CO)cc(C)nc2c1S(=O)(=O)c1ccccc1 [1.2.6(1)] | 0.60 |
| CSc1nn2c(CO)cc(C)nc2c1S(=O)(=O)c1ccccc1 [1.1.6(1)] | 1.86 |
| CNc1nn2c(C)cc(-c3ccncc3)nc2c1S(=O)(=O)c1ccccc1 [1.2.8(8)] | 0.60 |
| CNc1nn2c(N3CCN(C)CC3)cc(C)nc2c1S(=O)(=O)c1ccccc1 [1.2.12(4).HCl] | 2.24 |

---

# Target: 5-HT6 receptor (Homo sapiens (Human), UniProt P50406)
# Sequence (P50406 whole entry): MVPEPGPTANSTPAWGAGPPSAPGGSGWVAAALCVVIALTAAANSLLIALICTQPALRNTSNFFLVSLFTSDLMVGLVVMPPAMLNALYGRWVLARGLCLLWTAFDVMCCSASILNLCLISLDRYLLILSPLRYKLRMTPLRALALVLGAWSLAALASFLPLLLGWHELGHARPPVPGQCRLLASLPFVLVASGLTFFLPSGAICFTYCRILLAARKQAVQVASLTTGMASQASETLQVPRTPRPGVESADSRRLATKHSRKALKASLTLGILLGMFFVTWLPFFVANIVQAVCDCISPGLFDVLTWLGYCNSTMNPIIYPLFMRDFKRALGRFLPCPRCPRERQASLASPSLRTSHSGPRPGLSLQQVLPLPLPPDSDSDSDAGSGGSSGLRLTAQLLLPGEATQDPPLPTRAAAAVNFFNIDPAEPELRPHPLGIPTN
# Procedure Details: functional assay for serotonin 5-HT6 receptor inhibition (serotonin-induced intracellular cAMP, LANCE cAMP kit, HEK 293 cells)
# Format: cell-based
# Assay Setup: HEK 293 cells with expressed 5-HT6 receptor; reduction of serotonin-induced intracellular cAMP
pIC50: −log10 of the molar value. Where a name gives a salt, the structure may show the parent alone.
Short version: pIC50 at least 7 is yes, less is no.

| Compound | Target | Qualitative Label |
| --- | --- | --- |
| COc1cc(-c2cccnc2)nc2c(S(=O)(=O)c3ccccc3)c(SC)nn12 [1.1.8(3)] | 5-HT6 receptor (Homo sapiens (Human), UniProt P50406) | yes |
| CNc1nn2c(C)c(N)c(C)nc2c1S(=O)(=O)c1ccccc1 [1.2.22(1).HCl] | 5-HT6 receptor (Homo sapiens (Human), UniProt P50406) | yes |
| CNc1nn2c(CCN(C)C)cc(C)nc2c1S(=O)(=O)c1ccccc1 [1.2.24(14).HCl] | 5-HT6 receptor (Homo sapiens (Human), UniProt P50406) | no |
| CNc1nn2c(CN(C)C)cc(C)nc2c1S(=O)(=O)c1ccccc1 [1.2.24(10).HCl] | 5-HT6 receptor (Homo sapiens (Human), UniProt P50406) | yes |
| CSc1nn2ccc(C)nc2c1S(=O)(=O)c1ccc(F)cc1 [1.1.2(2)] | 5-HT6 receptor (Homo sapiens (Human), UniProt P50406) | no |
| COCc1cc(C)n2nc(SC)c(S(=O)(=O)c3ccccc3)c2n1 [1.1.5(1)] | 5-HT6 receptor (Homo sapiens (Human), UniProt P50406) | no |
| CNc1nn2c(N(C)CCN(C)C)cc(C)nc2c1S(=O)(=O)c1ccccc1 [1.2.12(11)] | 5-HT6 receptor (Homo sapiens (Human), UniProt P50406) | no |
